Test system: HOP-62 NSCLC
test_method_notes: NCI tumour cell line growth inhibition, 48 h
measurement_kind: TGI

{"compound": "COc1cccc2c1C(=N)c1c(O)c3c(c(O)c1C2=O)C[C@@](O)(C(C)=O)C[C@@H]3O[C@H]1C[C@H](N)[C@H](O)[C@H](C)O1", "TGI": "1.37 µM"}
{"compound": "Cn1c(Cl)c(/C=C2/C(=O)Nc3ccccc32)c2ccccc21", "TGI": "6.68 µM"}
{"compound": "O=C1COc2cc(NC(=S)Nc3ccccc3)ccc2N1", "TGI": "> 100 µM"}
{"compound": "COc1ccc2nc(N/N=C/c3sccc3C)cc(C)c2c1", "TGI": "36.3 µM"}

Reported TGI, compound "COC(=O)C(=O)CC(=O)CCn1[nH]c(=O)c(Cl)c(Cl)c1=O" : ____
> 100 µM

Reported TGI, compound O=C(NN1C(=O)C(Cl)C1c1ccc(Cl)cc1)c1c(Cl)c(Cl)c(Cl)c(Cl)c1-c1nc2ccccc2[nH]1 (centres undefined) : ____
> 100 µM

Reported TGI, compound COC(=O)C1=C(OC(=O)/C(=C/c2ccccc2)c2ccc(Cl)cc2Cl)C(C(=O)OC)[C@@]2(O)[C@@H](C(=O)OC)[C@H](C)C[C@@H]1[C@@H]2C(=O)OC (some centres undefined) : ____
> 100 µM

Reported TGI, compound CC(C)(C)C1=C(Br)C(C(C)(C)C)OP1(=O)O (centres undefined) : ____
> 100 µM

Reported TGI, compound "COc1cc(NS(=O)(=O)c2ccc(C)cc2)c2nccnc2c1" : ____
> 100 µM
